Where do these numbers come from? They come from patent US20200207859A1.

Molecular target: CD74 (human), P04233
Sequence (P04233 whole entry): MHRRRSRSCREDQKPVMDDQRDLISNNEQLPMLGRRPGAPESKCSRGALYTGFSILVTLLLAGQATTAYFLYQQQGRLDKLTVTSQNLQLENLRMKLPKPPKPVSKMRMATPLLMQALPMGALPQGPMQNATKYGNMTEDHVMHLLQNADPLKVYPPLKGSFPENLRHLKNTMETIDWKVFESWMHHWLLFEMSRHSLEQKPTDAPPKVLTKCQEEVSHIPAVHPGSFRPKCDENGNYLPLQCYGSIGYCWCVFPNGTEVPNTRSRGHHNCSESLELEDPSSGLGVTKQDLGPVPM
Experiment: cell-based or functional assay

{"binder": "Conjugate E (anti-CD74 IgG-PEG4-MMAF conjugate) (antibody, V domains shown, here or on the partner: modified amino acid residue 30 (pAMF) according to Example 2, position not stated for this conjugate, linked to PEG4-MMAF) VH: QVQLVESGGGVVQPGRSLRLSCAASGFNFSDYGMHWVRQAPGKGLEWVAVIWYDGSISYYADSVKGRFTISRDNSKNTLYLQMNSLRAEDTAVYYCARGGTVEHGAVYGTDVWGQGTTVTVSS VL: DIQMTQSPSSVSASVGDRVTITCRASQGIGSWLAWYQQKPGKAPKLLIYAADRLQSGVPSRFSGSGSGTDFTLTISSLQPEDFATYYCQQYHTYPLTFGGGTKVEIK", "cell killing Span, BDCM (AML) cells (%)": 78}
{"binder": "Conjugate A (anti-CD74 IgG-DBCO-PEG4-maytansine conjugate) (antibody, V domains shown, here or on the partner: para-azidomethyl-L-phenylalanine (pAMF, residue 30) at heavy chain EU position 404 (constant region, outside SEQ ID NO 236), linked to DBCO-PEG4-maytansine) VH: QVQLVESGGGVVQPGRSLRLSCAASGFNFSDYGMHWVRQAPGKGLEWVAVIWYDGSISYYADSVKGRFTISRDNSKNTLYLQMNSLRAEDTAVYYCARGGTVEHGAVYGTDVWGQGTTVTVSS VL: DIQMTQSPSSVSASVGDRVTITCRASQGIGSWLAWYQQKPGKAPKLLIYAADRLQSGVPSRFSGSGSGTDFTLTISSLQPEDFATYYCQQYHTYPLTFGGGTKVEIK", "cell killing Span, BDCM (AML) cells (%)": 76}
{"binder": "Conjugate F (anti-CD74 IgG-PEG4-MMAE conjugate) (antibody, V domains shown, here or on the partner: modified amino acid residue 30 (pAMF) according to Example 2, position not stated for this conjugate, linked to PEG4-MMAE) VH: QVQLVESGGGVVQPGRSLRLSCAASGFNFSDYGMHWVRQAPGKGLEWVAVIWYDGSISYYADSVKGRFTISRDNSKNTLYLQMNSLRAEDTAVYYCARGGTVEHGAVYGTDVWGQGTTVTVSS VL: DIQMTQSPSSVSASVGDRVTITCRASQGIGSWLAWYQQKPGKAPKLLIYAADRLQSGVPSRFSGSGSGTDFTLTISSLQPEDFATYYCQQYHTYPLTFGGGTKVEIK", "cell killing Span, BDCM (AML) cells (%)": 94}
{"binder": "Conjugate B (anti-CD74 IgG-PEG4-maytansine conjugate) (antibody, V domains shown, here or on the partner: modified amino acid residue 30 (pAMF) according to Example 2, position not stated for this conjugate, linked to a PEG4-maytansine linker-payload) VH: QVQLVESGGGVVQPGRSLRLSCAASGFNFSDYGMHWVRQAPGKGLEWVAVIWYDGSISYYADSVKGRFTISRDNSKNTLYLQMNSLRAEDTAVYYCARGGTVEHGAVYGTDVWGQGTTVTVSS VL: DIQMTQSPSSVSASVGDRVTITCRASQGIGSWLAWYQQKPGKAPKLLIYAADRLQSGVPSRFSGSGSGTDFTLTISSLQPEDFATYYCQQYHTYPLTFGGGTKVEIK", "cell killing Span, BDCM (AML) cells (%)": 95}
